Numbers sourced from PubChem BioAssay AID1963875.

# Test system: KRAS-mutant PDC complex spheroid viability
# procedure_text: Anticancer human tumor 186277-243-T-J2-PDC patient-derived colon adenocarcinoma cell line growth inhibition [KRAS2]
# cond: second compound 1 µM; first compound 0.000316 µM; stronger effect = lower value
readout_kind: viability, T/C (%)
Report the figure in % without appending any unit label.

Some compounds with known viability, T/C results, for comparison:
{"compound": "Cn1ncnc1[C@H]1c2n[nH]c(=O)c3cc(F)cc(c23)N[C@@H]1c1ccc(F)cc1 + COc1cc2nc(C)nc(NC(C)c3cc(N)cc(C(F)(F)F)c3)c2cc1OC1CCOC1", "units_of_measure": "%", "viability, T/C": 109}
{"compound": "CC(=O)Nc1cccc(-n2c(=O)n(C3CC3)c(=O)c3c(Nc4ccc(I)cc4F)n(C)c(=O)c(C)c32)c1 + CNCc1ccccc1-c1csc(C(C)Nc2nc(C)nc3cc(OC)c(OC)cc23)c1", "units_of_measure": "%", "viability, T/C": 31.3}
{"compound": "CC(C)n1nc(-c2ccc3oc(N)nc3c2)c2c(N)ncnc21 + C=CC(=O)N1CCN(c2nc(=O)n(-c3c(C)ccnc3C(C)C)c3nc(-c4c(O)cccc4F)c(F)cc23)C(C)C1", "units_of_measure": "%", "viability, T/C": 97.5}

# input Fill blank: measured viability, T/C of the compound CN(C)C/C=C/C(=O)Nc1cc2c(Nc3ccc(F)c(Cl)c3)ncnc2cc1O[C@H]1CCOC1 + CNCc1ccccc1-c1csc(C(C)Nc2nc(C)nc3cc(OC)c(OC)cc23)c1 is ____.
# output 108

# input Entry CC(=O)Nc1cccc(-n2c(=O)n(C3CC3)c(=O)c3c(Nc4ccc(I)cc4F)n(C)c(=O)c(C)c32)c1 + COc1cc2nc(C)nc(NC(C)c3cc(N)cc(C(F)(F)F)c3)c2cc1OC1CCOC1 please
# output 46.3

----------
# System: KRAS-mutant PDC complex spheroid viability
# procedure_text: Anticancer human tumor 186277-243-T-J2-PDC cell line growth inhibition [KRAS2];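 note: viability read after seven days of compound exposure; 100% = DMSO vehicle-treated spheroids so lower means less viable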
# cond: second compound 3.16 µM; first compound 0.316 µM; stronger effect = lower value
viability, T/C: recorded values
Report the figure in % without appending any unit label.

{"molecule": "CCNC(=O)CC1N=C(c2ccc(Cl)cc2)c2cc(OC)ccc2-n2c(C)nnc21 (stereo not given) + CC1OCC2(CCN(c3cnc(Sc4ccnc(N)c4Cl)c(N)n3)CC2)C1N", "units_of_measure": "%", "quantitative_readout": 20.9}
{"molecule": "CCN1CCN(Cc2ccc(Nc3ncc(F)c(-c4cc(F)c5nc(C)n(C(C)C)c5c4)n3)nc2)CC1 + CC1OCC2(CCN(c3cnc(Sc4ccnc(N)c4Cl)c(N)n3)CC2)C1N", "units_of_measure": "%", "quantitative_readout": 52.2}
{"molecule": "COc1cc(Nc2ncc3c(n2)-c2ccc(Cl)cc2C(c2c(F)cccc2OC)=NC3)ccc1C(=O)O + CNCc1ccccc1-c1csc(C(C)Nc2nc(C)nc3cc(OC)c(OC)cc23)c1", "units_of_measure": "%", "quantitative_readout": 4.27}
{"molecule": "Cn1nccc1Nc1nccc(-c2cc3c(s2)C(C)(C)N(CCN2CCOCC2)C3=O)n1 + C=CC(=O)N1CCN(c2nc(OCC3CCCN3C)nc3c2CCN(c2cccc4cccc(C)c24)C3)CC1CC#N", "units_of_measure": "%", "quantitative_readout": 0.45}

Now examine the next entry.
# input Fill blank: measured viability, T/C of the molecule CCNC(=O)CC1N=C(c2ccc(Cl)cc2)c2cc(OC)ccc2-n2c(C)nnc21 (stereo not given) + C=CC(=O)N1CCN(c2nc(=O)n(-c3c(C)ccnc3C(C)C)c3nc(-c4c(O)cccc4F)c(F)cc23)C(C)C1 is ____.
# output 107
